We begin with a simple list: items and their reported DC50.
ASSAY TARGET: EGFR WT (BaF3 WT cells) (Homo sapiens)
Construct: expressed in transfected cells; host or cells: BaF3
Sequence (P00533 25-1210): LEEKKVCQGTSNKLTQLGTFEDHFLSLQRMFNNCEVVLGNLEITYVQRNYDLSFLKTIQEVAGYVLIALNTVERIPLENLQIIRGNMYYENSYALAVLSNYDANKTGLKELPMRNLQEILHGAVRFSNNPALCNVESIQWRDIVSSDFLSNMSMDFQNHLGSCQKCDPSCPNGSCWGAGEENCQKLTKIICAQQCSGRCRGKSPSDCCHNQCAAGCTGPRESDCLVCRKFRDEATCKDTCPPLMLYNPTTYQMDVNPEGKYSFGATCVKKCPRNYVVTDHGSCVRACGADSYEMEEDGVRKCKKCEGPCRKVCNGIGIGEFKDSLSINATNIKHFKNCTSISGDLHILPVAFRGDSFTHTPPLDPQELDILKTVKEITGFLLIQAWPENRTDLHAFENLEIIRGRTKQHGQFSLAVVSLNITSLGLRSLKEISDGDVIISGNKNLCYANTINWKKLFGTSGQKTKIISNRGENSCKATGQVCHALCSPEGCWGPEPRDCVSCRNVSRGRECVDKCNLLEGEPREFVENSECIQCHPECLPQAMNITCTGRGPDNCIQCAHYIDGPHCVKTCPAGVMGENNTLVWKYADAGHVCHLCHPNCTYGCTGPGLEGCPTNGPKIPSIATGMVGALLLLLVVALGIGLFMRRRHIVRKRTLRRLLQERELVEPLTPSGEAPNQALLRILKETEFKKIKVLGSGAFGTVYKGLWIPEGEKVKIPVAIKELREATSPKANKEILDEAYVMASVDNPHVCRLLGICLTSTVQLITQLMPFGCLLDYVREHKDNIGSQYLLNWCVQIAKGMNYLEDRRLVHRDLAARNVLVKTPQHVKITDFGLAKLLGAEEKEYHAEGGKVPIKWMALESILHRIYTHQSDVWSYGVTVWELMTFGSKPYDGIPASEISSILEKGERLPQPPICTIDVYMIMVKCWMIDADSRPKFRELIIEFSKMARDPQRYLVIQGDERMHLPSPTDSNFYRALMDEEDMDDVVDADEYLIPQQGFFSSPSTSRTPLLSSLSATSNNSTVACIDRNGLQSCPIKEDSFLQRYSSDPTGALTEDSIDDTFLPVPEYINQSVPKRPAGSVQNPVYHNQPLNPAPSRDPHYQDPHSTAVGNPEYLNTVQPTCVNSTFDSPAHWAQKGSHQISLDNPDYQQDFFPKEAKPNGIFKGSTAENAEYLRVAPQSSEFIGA
TEST PROTOCOL: EGFR degradation HTRF assay, BaF3 WT cells
Assay type: cell-based
STATED CONDITIONS: BaF3 WT, 16h treatment

The following molecules have reported results that may help.
MOLECULE: CCc1cc(Nc2ncc(Br)c(Nc3ccc4nccnc4c3P(C)(C)=O)n2)c(OC)cc1N1CCC(N2CCN(CCCN3CCN(c4ccc5c(c4)C(=O)N(C4CCC(=O)NC4=O)C5=O)CC3)CC2)CC1 (stereo not drawn)
RESULT: 8.86 µM
--
MOLECULE: CCc1cc(Nc2ncc(Br)c(Nc3ccc4nccnc4c3P(C)(C)=O)n2)c(OC)cc1N1CCC(N2CCN(CCCC3CN(c4ccc5c(c4)C(=O)N(C4CCC(=O)NC4=O)C5=O)C3)CC2)CC1 (stereo not drawn)
RESULT: > 10 µM

Problem: Name the reported DC50 value associated with the molecule CP(C)(=O)c1c(Nc2nc(Nc3ccc(N4CCN(C5CN(CCC6CCN(c7ccc(C8CCC(=O)NC8=O)c(F)c7)CC6)C5)CC4)c(F)c3)ncc2Br)ccc2nccnc12 (stereo not drawn)
Solution: > 10 µM

// provenance: patent US20230265116A1
